# credit: patent US20220251219A1

target_or_system: T1, recombinant mouse Sortilin (mouse, UniProt Q6PHU5 74-825)
T1 construct: also called mSort
experiment_notes: flow cytometry, 293 cells expressing recombinant mouse Sortilin, 10 ug/ml antibody

binder	MFI / MFI
anti-Sortilin antibody S-21 (antibody, V domains shown, IgG) VH: QVQLVQSGAEVKKPGSSVKVSCKASGGTFSSYAISWVRQAPGQGLEWMGSIIPIFGTANYAQKFQGRVTITADESTSTAYMELSSLRSEDTAVYYCARERRYDGYYYYYGMDVWGQGTTVTVSS VL: DIQMTQSPSSLSASVGDRVTITCRASQSISSYLNWYQQKPGKAPKLLIYAASSLQSGVPSRFSGSGSGTDFTLTISSLQPEDFATYYCQQKASLPFTFGGGTKVEIK	22900
anti-Sortilin antibody S-10 (antibody, V domains shown, IgG) VH: QVQLVQSGAEVKKPGASVKVSCKASGYTFTSYGISWVRQAPGQGLEWMGWISAYNGNTNYAQKLQGRVTMTTDTSTSTAYMELRSLRSDDTAVYYCARDPGGYGPTLYYYYGMDVWGQGTTVTVSS VL: EIVMTQSPATLSVSPGERATLSCRASQSVSSNLAWYQQKPGQAPRLLIYGASTRATGIPARFSGSGSGTEFTLTISSLQSEDFAVYYCQQYADWPPITFGGGTKVEIK	19400
anti-Sortilin antibody S-19 (antibody, V domains shown, IgG) VH: QVQLVQSGAEVKKPGSSVKVSCKASGGTFSSYAISWVRQAPGQGLEWMGGIIPIFGTASYAQKFQGRVTITADESTSTAYMELSSLRSEDTAVYYCARESRIPGSGYYYYYGMDVWGQGTTVTVSS VL: DIQMTQSPSSLSASVGDRVTITCRASQSISSYLNWYQQKPGKAPKLLIYSASSLQSGVPSRFSGSGSGTDFTLTISSLQPEDFATYYCQQTDGKPPTFGGGTKVEIK	28200
